system: SD rats; assay: Urinary glucose excretion in SD rats; format: in vivo; conditions: 1 mg/kg oral, glucose 2 g/kg 1 h post dose, 4-24 h
Consider the following compounds; for each one, report its Urinary Glucose Excretion in Rats, 4-24 h (mean ± SD).
Output should be the measured figure followed by the unit it is expressed in.

Request: Query: Urinary Glucose Excretion in Rats, 4-24 h (mean ± SD); subject: [2H]C([2H])([2H])Oc1ccc(Cc2cc([C@]3([2H])O[C@H](CO)[C@@H](O)[C@H](O)[C@H]3O)ccc2Cl)cc1 [24e]
Response: 2288 ± 287 mg

Request: And then COc1ccc(Cc2cc([C@@H]3O[C@H](CO)[C@@H](O)[C@H](O)[C@H]3O)ccc2Cl)cc1 [Ref B, reference compound] , what is it?
Response: 1657 ± 354 mg

Request: And then [2H]C([2H])([2H])Oc1ccc(Cc2cc([C@@H]3O[C@H](CO)[C@@H](O)[C@H](O)[C@H]3O)ccc2Cl)cc1 [24d] , what is it?
Response: 1983 ± 167 mg

Request: And then [2H][C@@]1(c2ccc(Cl)c(Cc3ccc(OCC)cc3)c2)O[C@H](CO)[C@@H](O)[C@H](O)[C@H]1O [compound 5] , what is it?
Response: 2457 ± 369 mg

---

assay: Pharmacokinetic parameters in SD rats; format: in vivo, Sprague-Dawley rats; settings: Sprague-Dawley, rat, single oral 3 mg/kg in 30% PEG400, plasma
measurement-type: Cmax (ng/mL)
Provide the reading as a plain figure in ng/mL.

Request: Query: Cmax; subject: [2H]C([2H])(c1ccc(C2CC2)cc1)c1cc([C@@H]2O[C@H](CO)[C@@H](O)[C@H](O)[C@H]2O)ccc1Cl [compound 54]
Response: 1270

Request: And then [2H]C([2H])(COc1ccc(Cc2cc([C@@H]3O[C@H](CO)[C@@H](O)[C@H](O)[C@H]3O)ccc2Cl)cc1)OC1CC1 [compound 95] , what is it?
Response: 710

Request: And then OC[C@H]1O[C@@H](c2ccc(Cl)c(Cc3ccc(OCCOC4CC4)cc3)c2)[C@H](O)[C@@H](O)[C@@H]1O [Ref G, reference compound] , what is it?
Response: 594

Request: And then OC[C@H]1O[C@@H](c2ccc(Cl)c(Cc3ccc(C4CC4)cc3)c2)[C@H](O)[C@@H](O)[C@@H]1O [Ref C, reference compound] , what is it?
Response: 1050

---

Consider the following molecules; for each one, report its half-life.
assay: Pharmacokinetic parameters in SD rats; assay type: in vivo, Sprague-Dawley rats; details: Sprague-Dawley, rat, single oral 3 mg/kg in 30% PEG400, plasma, read-out: t1/2 (mean ± SD) (converted)
Provide the reading as a plain figure in h.

Request: Query: half-life; subject: `[2H]C([2H])(COc1ccc(Cc2cc([C@@H]3O[C@H](CO)[C@@H](O)[C@H](O)[C@H]3O)ccc2Cl)cc1)OC1CC1`
Response: 4.83

Request: And then `[2H]C([2H])(c1ccc(C2CC2)cc1)c1cc([C@@H]2O[C@H](CO)[C@@H](O)[C@H](O)[C@H]2O)ccc1Cl` , what is it?
Response: 6.08

Request: And then OC[C@H]1O[C@@H](c2ccc(Cl)c(Cc3ccc(C4CC4)cc3)c2)[C@H](O)[C@@H](O)[C@@H]1O [Ref C, reference compound] , what is it?
Response: 4.28

Request: And then OC[C@H]1O[C@@H](c2ccc(Cl)c(Cc3ccc(OCCOC4CC4)cc3)c2)[C@H](O)[C@@H](O)[C@@H]1O [Ref G, reference compound] , what is it?
Response: 3.39

---

Target: CYP1A2 (Homo sapiens, UniProt P05177)
Sequence (P05177 1-516): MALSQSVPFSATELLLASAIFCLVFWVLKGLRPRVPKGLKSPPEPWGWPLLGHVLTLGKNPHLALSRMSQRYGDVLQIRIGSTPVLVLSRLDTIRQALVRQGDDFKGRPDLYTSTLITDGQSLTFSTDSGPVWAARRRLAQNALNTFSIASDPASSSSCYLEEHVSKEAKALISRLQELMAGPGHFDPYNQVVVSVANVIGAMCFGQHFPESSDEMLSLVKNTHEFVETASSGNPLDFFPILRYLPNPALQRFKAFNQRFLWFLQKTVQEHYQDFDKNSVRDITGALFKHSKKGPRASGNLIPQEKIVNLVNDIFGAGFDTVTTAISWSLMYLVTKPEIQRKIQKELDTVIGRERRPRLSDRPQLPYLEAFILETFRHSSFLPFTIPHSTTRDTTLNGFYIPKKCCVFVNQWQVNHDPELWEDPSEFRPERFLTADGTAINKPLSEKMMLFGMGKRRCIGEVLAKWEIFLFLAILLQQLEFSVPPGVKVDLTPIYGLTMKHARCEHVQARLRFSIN
measurement-type: IC50

Request: Item: [2H]C([2H])([2H])Oc1ccc(Cc2cc([C@@H]3O[C@H](CO)[C@@H](O)[C@H](O)[C@H]3O)ccc2Cl)cc1 [24d] Test system: CYP1A2 (Homo sapiens, UniProt P05177) Read-out: IC50 Value: ?
Response: > 1000 µM

Request: And then [2H]C([2H])([2H])Oc1ccc(C([2H])([2H])c2cc([C@@H]3O[C@H](CO)[C@@H](O)[C@H](O)[C@H]3O)ccc2Cl)cc1 [compound 19] , what is it?
Response: > 1000 µM

Request: And then [2H][C@@]1(c2ccc(Cl)c(Cc3ccc(OCC)cc3)c2)O[C@H](CO)[C@@H](O)[C@H](O)[C@H]1O [compound 5] , what is it?
Response: 500 to 1000 µM

Request: And then [2H]C([2H])([2H])C([2H])([2H])Oc1ccc(Cc2cc([C@@H]3O[C@H](CO)[C@@H](O)[C@H](O)[C@H]3O)ccc2Cl)cc1 [24c] , what is it?
Response: 500 to 1000 µM

Request: And then CCOc1ccc(Cc2cc([C@@H]3O[C@H](CO)[C@@H](O)[C@H](O)[C@H]3O)ccc2Cl)cc1 [Ref A, reference compound] , what is it?
Response: 426 µM

Request: And then COc1ccc(Cc2cc([C@@H]3O[C@H](CO)[C@@H](O)[C@H](O)[C@H]3O)ccc2Cl)cc1 [Ref B, reference compound] , what is it?
Response: > 1000 µM

Request: And then [2H]C([2H])(c1ccc(OCC)cc1)c1cc([C@@H]2O[C@H](CO)[C@@H](O)[C@H](O)[C@H]2O)ccc1Cl [compound 9] , what is it?
Response: ~500 µM

---

For reference, pIC50 measured on CYP2C19 (Homo sapiens):
Lab note: report pIC50 as minus log10 of the concentration in molar units, number only.

Request: Query: pIC50; subject: CCOc1ccc(Cc2cc([C@@H]3O[C@H](CO)[C@@H](O)[C@H](O)[C@H]3O)ccc2Cl)cc1 [Ref A, reference compound]
Response: 4.21

Request: And then [2H]C([2H])([2H])Oc1ccc(Cc2cc([C@@H]3O[C@H](CO)[C@@H](O)[C@H](O)[C@H]3O)ccc2Cl)cc1 [24d] , what is it?
Response: 3.92

Request: And then [2H]C([2H])([2H])C([2H])([2H])Oc1ccc(Cc2cc([C@@H]3O[C@H](CO)[C@@H](O)[C@H](O)[C@H]3O)ccc2Cl)cc1 [24c] , what is it?
Response: 3.77

Request: And then COc1ccc(Cc2cc([C@@H]3O[C@H](CO)[C@@H](O)[C@H](O)[C@H]3O)ccc2Cl)cc1 [Ref B, reference compound] , what is it?
Response: 3.71

---

Consider the following compounds; for each one, report its Cmax.
test: Pharmacokinetic parameters in Beagle dogs; assay type: in vivo; settings: dog, single oral 1 mg/kg in 30% PEG400, plasma, read-out: Cmax (mean ± SD)
Provide the reading as a plain figure in ng/mL.

Request: Query: Cmax; subject: OC[C@H]1O[C@@H](c2ccc(Cl)c(Cc3ccc(OCCOCC(F)F)cc3)c2)[C@H](O)[C@@H](O)[C@@H]1O [Ref F, reference compound]
Response: 889

Request: And then `[2H]C([2H])(c1ccc(OCCOCC(F)F)cc1)c1cc([C@@H]2O[C@H](CO)[C@@H](O)[C@H](O)[C@H]2O)ccc1Cl` , what is it?
Response: 1580

---

experiment: Pharmacokinetic parameters in SD rats; assay type: in vivo, Sprague-Dawley rats; settings: Sprague-Dawley, rat, single oral 3 mg/kg in 30% PEG400, plasma
measurement-type: CL/F (mL/min/kg)
Provide the reading as a plain figure in mL/min/kg.

Request: Query: CL/F; subject: OC[C@H]1O[C@@H](c2ccc(Cl)c(Cc3ccc(OCCOC4CC4)cc3)c2)[C@H](O)[C@@H](O)[C@@H]1O [Ref G, reference compound]
Response: 11.8

Request: And then [2H]C([2H])([2H])Oc1ccc(Cc2cc([C@@H]3O[C@H](CO)[C@@H](O)[C@H](O)[C@H]3O)ccc2Cl)cc1 [24d] , what is it?
Response: 7.18

Request: And then [2H]C([2H])([2H])C([2H])([2H])Oc1ccc(Cc2cc([C@@H]3O[C@H](CO)[C@@H](O)[C@H](O)[C@H]3O)ccc2Cl)cc1 [24c] , what is it?
Response: 2.22

Request: And then [2H]C([2H])(c1ccc(C2CC2)cc1)c1cc([C@@H]2O[C@H](CO)[C@@H](O)[C@H](O)[C@H]2O)ccc1Cl [compound 54] , what is it?
Response: 4.4

Request: And then [2H]C([2H])(c1ccc(OC([2H])([2H])C([2H])([2H])[2H])cc1)c1cc([C@@H]2O[C@H](CO)[C@@H](O)[C@H](O)[C@H]2O)ccc1Cl [compound 16] , what is it?
Response: 2.3
